target: ALPK1 (Homo sapiens (Human)); test: ALPK1 in vitro kinase assay (HTRF of TIFA phosphorylation); assay type: biochemical
READOUT: pIC50
Please keep in mind that pIC50 is minus log10 of the molar concentration; only the number is needed.

-- ask Given the entry COc1ccc(C(C)(C)c2csc(NC(=O)NCCF)n2)cc1 [Example A021] , what pIC50 was observed with ALPK1 (Homo sapiens (Human))?
-- reply 6.98

-- ask Given the entry C#C[C@@](C)(c1ccc(Cl)cc1)c1csc(NC(=O)N2CC(c3ccc(N4CCNCC4)c(F)c3)C2)n1 [Example A245] , what pIC50 was observed with ALPK1 (Homo sapiens (Human))?
-- reply 7.80

-- ask Given the entry COc1ccc(C(C)(C)c2csc(NC(=O)NCCCO)n2)cc1 [Example A133] , what pIC50 was observed with ALPK1 (Homo sapiens (Human))?
-- reply 7.24

-- ask Given the entry CC(C)(c1ccc(Br)cc1)c1csc(NC(=O)NCc2ccc(N3CCC(CN)CC3)cc2)n1 [Example A211] , what pIC50 was observed with ALPK1 (Homo sapiens (Human))?
-- reply 7.03

-- ask Given the entry C#C[C@@](C)(c1ccc(OC)cc1)c1csc(NC(N)=O)n1 [Example A173] , what pIC50 was observed with ALPK1 (Homo sapiens (Human))?
-- reply 8.10

-- ask Given the entry C#C[C@@](C)(c1ccc(Cl)cc1)c1csc(NC(=O)NCCC(C)(C)O)n1 [Example A249] , what pIC50 was observed with ALPK1 (Homo sapiens (Human))?
-- reply 6.89

-- ask Given the entry C#CC(C)(c1ccc(Cl)cc1)c1csc(NC(=O)N(CCO)CCO)n1 (centres unmarked) [Example A253] , what pIC50 was observed with ALPK1 (Homo sapiens (Human))?
-- reply 6.76

-- ask Given the entry CC(C)(c1ccc(Br)cc1)c1csc(NC(=O)NCc2cnc(NCCO)nc2)n1 [Example A119] , what pIC50 was observed with ALPK1 (Homo sapiens (Human))?
-- reply 7.44

-- ask Given the entry CCN(CC)CCCNC(=O)Nc1nc(C(C)(C)c2ccc(OC)cc2)cs1 [Example A146] , what pIC50 was observed with ALPK1 (Homo sapiens (Human))?
-- reply 6.91

-- ask Given the entry C#C[C@](C)(c1ccc(Br)cc1)c1csc(NC(=O)NCC(O)CO)n1 (stereo in doubt) [Example A277] , what pIC50 was observed with ALPK1 (Homo sapiens (Human))?
-- reply 5.57

-- ask Given the entry COc1ccc(C(C)(C)c2csc(NC(=O)NC3(c4ccc(N5CCNCC5)cc4)CC3)n2)cc1 [Example A240] , what pIC50 was observed with ALPK1 (Homo sapiens (Human))?
-- reply 7.01

-- ask Given the entry C#C[C@](C)(c1ccc(Cl)cc1)c1csc(NC(=O)N2CC(c3ccc(N4CCNCC4)c(F)c3)C2)n1 [Example A246] , what pIC50 was observed with ALPK1 (Homo sapiens (Human))?
-- reply 7.54

-- ask Given the entry COc1ccc(C(C)(C)c2csc(NC(=O)NCc3cnc(N4CCN(CCO)CC4)nc3)n2)cc1 [Example A208] , what pIC50 was observed with ALPK1 (Homo sapiens (Human))?
-- reply 7.11

-- ask Given the entry CC(C)(c1ccc(Br)cc1)c1csc(NC(=O)NCCCO)n1 [Example A126] , what pIC50 was observed with ALPK1 (Homo sapiens (Human))?
-- reply 7.06

* * *

Answer each item with its documented IC50.
target: ALPK1 (Homo sapiens (Human), UniProt Q96QP1); assay: ALPK1 in vitro kinase assay (HTRF of TIFA phosphorylation); type: biochemical
Sequence (Q96QP1 whole entry): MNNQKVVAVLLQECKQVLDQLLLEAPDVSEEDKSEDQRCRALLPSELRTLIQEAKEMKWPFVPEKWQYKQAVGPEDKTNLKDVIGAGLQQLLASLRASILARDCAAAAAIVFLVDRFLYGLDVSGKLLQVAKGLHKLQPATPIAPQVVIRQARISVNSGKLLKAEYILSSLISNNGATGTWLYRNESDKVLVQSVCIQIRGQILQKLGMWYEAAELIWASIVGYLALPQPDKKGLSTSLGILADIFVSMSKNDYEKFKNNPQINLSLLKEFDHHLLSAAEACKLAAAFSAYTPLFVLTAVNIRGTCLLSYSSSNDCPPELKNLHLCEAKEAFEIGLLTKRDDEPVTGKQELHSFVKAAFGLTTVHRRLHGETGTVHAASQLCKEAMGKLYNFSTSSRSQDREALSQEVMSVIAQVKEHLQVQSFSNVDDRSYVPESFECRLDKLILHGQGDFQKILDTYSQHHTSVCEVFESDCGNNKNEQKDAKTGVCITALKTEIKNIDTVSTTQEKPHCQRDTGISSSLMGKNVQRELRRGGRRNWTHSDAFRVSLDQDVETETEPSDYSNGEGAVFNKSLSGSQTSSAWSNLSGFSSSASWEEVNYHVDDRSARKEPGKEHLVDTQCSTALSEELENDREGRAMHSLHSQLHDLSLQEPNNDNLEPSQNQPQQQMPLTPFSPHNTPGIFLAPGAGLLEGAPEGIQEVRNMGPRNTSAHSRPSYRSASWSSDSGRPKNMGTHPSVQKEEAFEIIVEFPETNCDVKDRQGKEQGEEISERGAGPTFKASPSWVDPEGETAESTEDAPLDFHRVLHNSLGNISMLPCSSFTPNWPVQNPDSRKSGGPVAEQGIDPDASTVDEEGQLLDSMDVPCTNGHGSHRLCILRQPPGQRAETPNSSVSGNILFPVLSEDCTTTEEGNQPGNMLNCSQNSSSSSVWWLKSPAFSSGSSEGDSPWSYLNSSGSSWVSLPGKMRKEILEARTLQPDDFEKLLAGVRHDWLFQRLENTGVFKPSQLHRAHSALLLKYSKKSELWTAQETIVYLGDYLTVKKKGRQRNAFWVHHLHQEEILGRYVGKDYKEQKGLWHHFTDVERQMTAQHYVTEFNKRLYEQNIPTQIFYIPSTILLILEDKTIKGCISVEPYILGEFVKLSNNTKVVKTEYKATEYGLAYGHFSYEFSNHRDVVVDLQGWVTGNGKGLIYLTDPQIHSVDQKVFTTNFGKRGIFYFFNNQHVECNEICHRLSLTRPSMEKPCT
Respond with a number, then the unit of measure.

-- ask Return reported IC50; argument: "CC(C)NC(=O)Nc1nc(C(C)(C)c2ccc(Br)cc2)cs1"
-- reply 28 nM

-- ask Return reported IC50; argument: "C#C[C@@](C)(c1ccc(Br)cc1)c1csc(NC(=O)N2CC(CO)C2)n1"
-- reply 7 nM

-- ask Return reported IC50; argument: "COc1ccc(C(C)(C)c2csc(NC(=O)NCc3cnc(N4CCC(C(N)=O)CC4)nc3)n2)cc1"
-- reply 150 nM

-- ask Return reported IC50; argument: "COc1ccc(C(C)(C)c2csc(NC(=O)NCc3cnc(N4CCNCC4)nc3C)n2)cc1"
-- reply 49 nM

-- ask Return reported IC50; argument: "C#C[C@](C)(c1ccc(OC)cc1)c1csc(NC(=O)NCCS(N)(=O)=O)n1"
-- reply 223 nM

* * *

test system: ALPK1-dependent NFκB reporter gene activation in HEK293 cells stably expressing an NF-kB reporter (G9 cells); test: NFκB gene reporter alkaline phosphatase assay; type: cell-based; conditions: Homo sapiens, HEK293; read-out: NFkB assay IC50
// returns no (0) unless IC50 is strictly below 2000 nM, in which case yes (1)

-- ask Please state whether IC50 is below 2000 nM for COc1ccc(C(C)(C)c2csc(NC(=O)NCc3cnc(N4CCC(C(N)=O)CC4)nc3)n2)cc1 [Example A215]
-- reply no (0)

-- ask Please state whether IC50 is below 2000 nM for C#C[C@](C)(c1ccc(OC)cc1)c1csc(NC(=O)NCCO)n1 [Example A169]
-- reply yes (1)

-- ask Please state whether IC50 is below 2000 nM for CN1CCN(Cc2ccc(CNC(=O)Nc3nc(C(C)(C)c4ccc(Br)cc4)cs3)cc2)CC1 [Example A016]
-- reply no (0)

-- ask Please state whether IC50 is below 2000 nM for C#CC(C)(c1ccc(Cl)cc1)c1csc(NC(=O)N2CC(CN3CCNCC3)C2)n1 (stereo not shown) [Example A259]
-- reply yes (1)

-- ask Please state whether IC50 is below 2000 nM for COc1ccc(C(C)(C)c2csc(NC(=O)NCc3ccc(N4CC5CC4CN5)cc3)n2)cc1 (stereo not shown) [Example A062]
-- reply yes (1)

-- ask Please state whether IC50 is below 2000 nM for CCC(C)(c1ccc(Br)cc1)c1csc(NC(=O)NCc2ccc(N3CCNCC3)cc2)n1 (stereo not shown) [Example A039]
-- reply yes (1)

-- ask Please state whether IC50 is below 2000 nM for CC(C)(c1ccc(Br)cc1)c1csc(NC(=O)NCc2ccc(N3CCNC(=O)C3)cc2)n1 [Example A195]
-- reply no (0)

-- ask Please state whether IC50 is below 2000 nM for C#C[C@](C)(c1ccc(Cl)cc1)c1csc(NC(=O)N2CCc3cc(N4CCNCC4)ccc3C2)n1 (stereo in doubt) [Example A280]
-- reply no (0)

-- ask Please state whether IC50 is below 2000 nM for CC(C)(c1ccc(Cl)cc1)c1csc(NC(=O)NCc2cnc(N3CCNCC3)nc2)n1 [Example A084]
-- reply yes (1)

-- ask Please state whether IC50 is below 2000 nM for C#C[C@](C)(c1ccc(Cl)cc1)c1csc(NC(=O)NCC(C)O)n1 (stereo in doubt) [Example A316]
-- reply yes (1)

* * *

system: ALPK1-dependent NFκB reporter gene activation in HEK293 cells stably expressing an NF-kB reporter (G9 cells); assay: NFκB gene reporter alkaline phosphatase assay; assay type: cell-based; settings: Homo sapiens, HEK293; read-out: NFkB assay IC50
READOUT: pIC50
Please keep in mind that pIC50 is minus log10 of the molar concentration; only the number is needed.

-- ask Return reported pIC50; argument: "CC(C)(c1ccc(Br)cc1)c1csc(NC(=O)NCc2ccc(CN3CCNCC3)cc2)n1"
-- reply 5.90

-- ask Return reported pIC50; argument: C#C[C@@](C)(c1ccc(Cl)cc1)c1csc(NC(=O)NCC2(O)CNC2)n1 (stereo in doubt)
-- reply 5.36

-- ask Return reported pIC50; argument: C#CC(C)(c1ccc(Br)cc1)c1csc(NC(N)=O)n1 (stereo in doubt) [Example A164]
-- reply 6.23

-- ask Return reported pIC50; argument: "CC(C)(c1ccc(Br)cc1)c1csc(NC(=O)NCc2cnc(NCCO)nc2)n1"
-- reply 5.35

-- ask Return reported pIC50; argument: "CCNC(=O)Nc1nc(C(C)(C)c2ccc(OC)cc2)cs1"
-- reply 6.01

-- ask Return reported pIC50; argument: C#CC(C)(c1ccc(Cl)cc1)c1csc(NC(=O)NC2CCN(Cc3ccc(C)cc3)C2)n1 (stereo not drawn)
-- reply 5.39

-- ask Return reported pIC50; argument: "CNS(=O)(=O)CCCNC(=O)Nc1nc(C(C)(C)c2ccc(OC)cc2)cs1"
-- reply 6.07

-- ask Return reported pIC50; argument: "CNS(=O)(=O)[C@H]1C[C@H](CNC(=O)Nc2nc(C(C)(C)c3ccc(OC)cc3)cs2)C1"
-- reply 5.85

-- ask Return reported pIC50; argument: "Cc1ccc(C(C)(C)c2csc(NC(=O)NCc3ccc(N4CCNCC4)cc3)n2)cc1"
-- reply 6.57

-- ask Return reported pIC50; argument: "CC(C)(c1ccc(Br)cc1)c1csc(NC(=O)NCc2cnc(N3CCNCC3)c(F)c2)n1"
-- reply 5.78

-- ask Return reported pIC50; argument: COc1ccc(C(C)(CO)c2csc(NC(=O)NC(C)c3ccc(N4CCNCC4)cc3)n2)cc1 (stereo not drawn)
-- reply 4.57

-- ask Return reported pIC50; argument: "CC(C)(c1ccc(Br)cc1)c1csc(NC(=O)NCc2cnc(N3CCC(N)CC3)nc2)n1"
-- reply 6.35

-- ask Return reported pIC50; argument: "COc1ccc(C(C)(C)c2csc(NC(=O)N3CC(c4ccc(N5CCNCC5)cc4)C3)n2)cc1"
-- reply 6.48

-- ask Return reported pIC50; argument: "Cc1cc(CNC(=O)Nc2nc(C(C)(C)c3ccc(Br)cc3)cs2)ccc1N1CCNCC1"
-- reply 5.84

-- ask Return reported pIC50; argument: "COc1ccc(C(C)(C)c2csc(NC(=O)NCc3cnc(N4CCN(CCO)CC4)c(F)c3)n2)cc1"
-- reply 5.84
